- measured_target: human EGFRvIII-hFc protein (human) (UniProt P00533)
- assay: ELISA, EGFRvIII-hFc coated
measured_endpoint: EC50 (nM)
Numbers only, in nM.

Past entries and their recorded results:
Humanized antibody h75G7C6-4 (antibody, human IgG1, V domains shown) VH: EVQLVQSGAEVKKPGASVKVSCKASGYTFTDYNMDWVKQAPGQGLEWIGDINPNNADTIYNQKFKGRVTLTVDKSTSTVYMELSSLRSEDTAVYYCARGDYDGYYPVYYAMDYWGQGTTVTVSS VL: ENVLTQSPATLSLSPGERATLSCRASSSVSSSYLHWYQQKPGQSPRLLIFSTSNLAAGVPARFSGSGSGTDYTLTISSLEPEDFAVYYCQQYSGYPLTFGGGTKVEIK
0.45
Humanized antibody h75G7C6-6 (antibody, human IgG1, V domains shown) VH: QVQLVQSGAEVKKPGASVKVSCKASGYTFTDYNMDWVRQAPGQGLEWMGDINPNNADTIYNQKFKGRVTMTRDTSTSTVYMELSSLRSEDTAVYYCARGDYDGYYPVYYAMDYWGQGTTVTVSS VL: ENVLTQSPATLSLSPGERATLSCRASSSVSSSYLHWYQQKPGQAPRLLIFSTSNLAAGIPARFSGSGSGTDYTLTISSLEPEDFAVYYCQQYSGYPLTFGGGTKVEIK
0.68

-- ask Dear colleague, I am looking for the recorded EC50 of the following binder: Humanized antibody h75G7C6-1 (antibody, human IgG1, V domains shown) VH: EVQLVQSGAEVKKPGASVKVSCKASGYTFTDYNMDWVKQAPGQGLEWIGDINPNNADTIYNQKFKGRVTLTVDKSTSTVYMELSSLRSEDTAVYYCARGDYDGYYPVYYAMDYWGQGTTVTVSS VL: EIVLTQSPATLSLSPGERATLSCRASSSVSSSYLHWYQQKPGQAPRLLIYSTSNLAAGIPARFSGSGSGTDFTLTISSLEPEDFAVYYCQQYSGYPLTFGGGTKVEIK
-- reply 0.49

Values compiled from patent US20210032351A1.
